test system: partially purified rat brain PLC; test: Inhibitory activity against PLC (hydrolysis of radiolabelled PI); assay type: biochemical; settings: 250 µM PI substrate, 2 mM CaCl₂, Tris-acetate buffer pH 5.5, 20 min at 30 °C; read-out: IC₅₀
readout_kind: IC50 (µM)

Reference set, count: 3
compound: NC[C@H]1O[C@H](O[C@H]2[C@H](O)[C@@H](O[C@H]3O[C@H](CO)[C@@H](O)[C@H](N)[C@H]3O)[C@H](N)C[C@@H]2N)[C@H](N)C[C@@H]1O
IC50 (µM): 29.9
//
compound: NCCCNCCCCNCCCN
IC50 (µM): 59.3
//
compound: C[C@@H]1CC[C@H]2[C@]13CC[C@@]1(C)O[C@]2(C)[C@@H](NCCCCN(C)CCCN(C)C)[C@H]1C3
IC50 (µM): 15.7

a. CN1CCN(CCCN2c3ccccc3Sc3ccc(C(F)(F)F)cc32)CC1
b. CCN(CC)CCCC(C)Nc1c2ccc(Cl)cc2nc2ccc(OC)cc12 (centres unmarked)
Query: Return label of the item with the larger IC50. Candidates: a , b . Pick one; state its label.
Reply: b
(b: 314 µM, a: 150 µM)
